meta.source: PubChem BioAssay AID248

- Test system: L1210 leukemia ip in BDF1 mice, survival T/C
- experiment.description: NCI In Vivo Anticancer Drug Screen. Data for tumor model L1210 Leukemia (intraperitoneal) in B6D2F1 (BDF1) mice
- run.parameters: endpoint: mean survival time; dose: 100.0 mg/kg/injection; schedule: Q01DX009 (ip); vehicle: Klucel (hydroxypropylcellulose) (HPC); higher = longer survival
Toxic doses and inconclusive results are not listed.
endpoint.label: T/C

compound: COc1ccccc1NC(=O)c1ccccc1F
endpoint.label: T/C
result: 95 % of control

compound: O=C(Nc1ccc(Cl)c(Cl)c1)OCCN1CCOCC1
endpoint.label: T/C
result: 92 % of control

compound: NC(=S)N/N=C/c1cc(Br)c(O)c(Br)c1
endpoint.label: T/C
result: 104 % of control

compound: O=C(Nc1ccc(CCO)cc1)Nc1cccc(F)c1
endpoint.label: T/C
result: 103 % of control

compound: O=C(Nc1ccc(F)c([N+](=O)[O-])c1)NC(Cc1ccccc1)c1ccccc1 (configuration not stated)
endpoint.label: T/C
result: 98 % of control

compound: CCc1ccc(NC(=O)c2cc(OC)c(OC)c(OC)c2)cc1
endpoint.label: T/C
result: 100 % of control

compound: CN(C)CCCNC(=S)C(=S)NCCCN(C)C
endpoint.label: T/C
result: 105 % of control

compound: CCCCCCOC(=O)CCC(=O)OCCCCCC
endpoint.label: T/C
result: 97 % of control

compound: O=C(Nc1ccccc1)OCC(Cl)(Cl)Cl
endpoint.label: T/C
result: 100 % of control

compound: COc1ccc2c(c1)CCC1=C2CCC2C(=O)OC(=O)C12C (configuration not stated)
endpoint.label: T/C
result: 98 % of control

compound: O=S1(=O)CC(c2ccc(Cl)cc2)Nc2ccccc21 (configuration not stated)
endpoint.label: T/C
result: 90 % of control

compound: CCOc1ccc2nc(/C=C/c3ccc(N(C)C)cc3)ccc2c1
endpoint.label: T/C
result: 94 % of control

###

Recorded T/C by entry
- System: L1210 leukemia ip in BDF1 mice, survival T/C
- experiment.description: NCI In Vivo Anticancer Drug Screen. Data for tumor model L1210 Leukemia (intraperitoneal) in B6D2F1 (BDF1) mice
- run.parameters: endpoint: mean survival time; dose: 50.0 mg/kg/injection; schedule: Q01DX009 (ip); vehicle: saline; higher = longer survival
Inconclusive results and toxic doses are left out.
endpoint.label: T/C

compound: CC1C(=O)Nc2ccccc2N1C(=O)CN1CCCC1 (stereo not drawn)
result: 98 % of control
//
compound: c1ccc(-c2cscc2-c2ccccc2)cc1
result: 96 % of control
//
compound: C=C1C(=O)OC2CCCC/C=C\C12 (stereo not drawn)
result: 95 % of control
//
compound: O=c1sc(N=Nc2ccccc2)nn1-c1ccccc1
result: 91 % of control
//
compound: O=S(=O)(CC12CC1(O)C1CCC2C1)c1ccccc1 (stereo not drawn)
result: 104 % of control
//
compound: O=[N+]([O-])c1ccc(-[n+]2ccccc2)c([N+](=O)[O-])c1
result: 103 % of control
//
compound: CC(=O)OC1/C(=C/c2ccco2)CCC2CCCCC21C (stereo not drawn)
result: 96 % of control
//
compound: Cc1nccnc1N
result: 110 % of control
//
compound: CC1CN1P(=O)(N1CC1C)N1CC1C.CC1CN1P(=O)(N1CC1C)N1CC1C.CC1CN1P(=O)(N1CC1C)N1CC1C.CC1CN1P(=O)(N1CC1C)N1CC1C.[Cu+2].[O-][Cl+3]([O-])([O-])O (stereo not drawn)
result: 119 % of control
//
compound: NC(N)=NCCCCCC(=O)Oc1ccc([N+](=O)[O-])cc1
result: 105 % of control
//
compound: C=C[C@@](C)(O)CC/C=C(/C)CCC=C(C)C
result: 106 % of control
//
compound: CC(N)Cc1ccccc1 (stereo not drawn)
result: 101 % of control
//
compound: O=C(NC/C=C/Br)Nc1c2ccccc2nc2ccccc12
result: 109 % of control
//
compound: CCCN(CCC)CCCOC(=O)c1ccc(N)cc1
result: 106 % of control
//
compound: N#CCCCC1(CCCC#N)OCCO1
result: 100 % of control
//
compound: Nc1nc([Se])c2ncn(C3OC(CO)C(O)C3O)c2n1 (stereo not drawn)
result: 91 % of control
//
compound: CCCCNCC1COc2cccc(OCC)c2O1 (stereo not drawn)
result: 113 % of control
//
compound: N#CCCCC[P+](c1ccccc1)(c1ccccc1)c1ccccc1
result: 93 % of control
//
compound: Cc1cccc(NC(=O)CCc2ccc(N3C(N)=NC(N)=NC3(C)C)cc2)c1
result: 103 % of control
//
compound: CCOC(=O)C(=O)O
result: 103 % of control
//
compound: O=c1[nH]c(=O)c2cccnc2[nH]1
result: 100 % of control
//
compound: C=CC1CC[N-]CC1.C=CC1CC[N-]CC1.C=CC1CC[N-]CC1.[Cl][Cr]([Cl])[Cl]
result: 94 % of control
//
compound: Cc1cccc(C)c1OCC1=NCCN1
result: 108 % of control
